- Tested on: HCC1599
- test-method-notes: normalised viability (% of control), CellTiter-Blue; higher = more viable cells (100 = DMSO, 0 = benzethonium chloride kill control)
- test-parameters: incubation time: 72 h
parameter-measured: normalised viability (%)
Entry rule: numbers only, all in %.

{"compound": "CC(=O)O[C@H]1C(=O)[C@@]2(C)[C@H]([C@H](OC(=O)c3ccccc3)[C@]3(O)C[C@H](OC(=O)[C@H](O)[C@@H](NC(=O)c4ccccc4)c4ccccc4)C(C)=C1C3(C)C)[C@]1(OC(C)=O)CO[C@@H]1C[C@@H]2O [Paclitaxel] (0.1 nM)", "assayed-system": "HCC1599", "normalised viability / %": 102}
{"compound": "COC1=C2C[C@@H](C)C[C@H](OC)[C@H](O)[C@@H](C)/C=C(\\C)[C@H](OC(N)=O)[C@@H](OC)/C=C\\C=C(/C)C(=O)NC(=CC1=O)C2=O [Geldanamycin] (1 nM)", "assayed-system": "HCC1599", "normalised viability / %": 87.6}
{"compound": "CN1CCN(c2ccc3nc(-c4c(N)c5c(F)cccc5[nH]c4=O)[nH]c3c2)CC1 [Dovitinib] (1 nM)", "assayed-system": "HCC1599", "normalised viability / %": 92.6}
{"compound": "C#Cc1cccc(Nc2ncnc3cc(OC)c(OCCCCCCC(=O)NO)cc23)c1 [CUDC-101] (1 nM)", "assayed-system": "HCC1599", "normalised viability / %": 115}
{"compound": "c1ccc(C2CN3CCSC3=N2)cc1 (stereo unspecified) [Tetramisole] (1 nM)", "assayed-system": "HCC1599", "normalised viability / %": 95.3}

Bench note, HCC1599: entry COC1=CC(c2cc3ccccc3[nH]2)=N/C1=C\c1[nH]c(C)cc1C [Obatoclax] (1 nM) , its normalised viability = 85.6
